Test: chemical genetic growth profiling, strain panel (AID 1159580);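 note: tested at 20 µM; growth read once vehicle control cultures reached saturation at 30 °C; lower values mean less growth of the strain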
Details: S. cerevisiae deletion strains, growth OD, locus YNL197C, strain WHI3, stronger effect = lower value
Screen size: about 5,500 compounds; about 2,000 (36%) were called active. About 18% were inconclusive and are not listed. Some of the results follow.
Could you mark each record true if its normalized growth falls strictly under 1, and false if it equals or exceeds it?

- CCSC(N)=Nc1ccc(C(F)(F)F)cc1: false
- O=[N+]([O-])c1cc(O)c(O)c([N+](=O)[O-])c1: true
- O=C(O)c1ccccc1Nc1cccc(OCc2ccc3ccccc3n2)c1: true

* * *

Assay: chemical genetic growth profiling, strain panel (AID 1159580);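 note: tested at 20 µM; growth read once vehicle control cultures reached saturation at 30 °C; lower values mean less growth of the strain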
Conditions: S. cerevisiae deletion strains, growth OD, locus YMR205C, strain PFK2 (second series)
Hit rate of the full screen: of about 5,500 compounds, about 2,000 (36%) were called active. Roughly 18% stayed inconclusive and do not appear here. Cut-off read from the data, not from the text of the source: active = normalized growth mostly below about 0.91 (no sharp cut-off); inconclusive = no clear call, values can overlap the other calls; inactive = mostly above about 0.92. The list shows a part of the results.
Outcome codes: T for active, F for inactive

- Cn1c(CSCCOc2ccccc2)nnc1SCc1ccc(Cl)cc1Cl: F
- O=c1c(Cl)c(-n2cccn2)cnn1-c1ccc(Cl)cc1Cl: F
- CCOc1ccc(/C=C(\C)[N+](=O)[O-])cc1OC: T
- CSc1cc(-c2ccncc2)nc(-c2cccs2)c1: F
- S=C(N/N=C\c1ccc(Cl)cc1)N/N=C\c1ccc(Cl)cc1: F
- Cc1cc(Cl)ccc1NC(=S)NNC(=S)Nc1ccc(F)cc1: F
- CC(=O)c1sc(SCCS(=O)(=O)c2ccc(C)cc2)c2c1CC(C)(C)CC2=O: F
- O=C(c1ccccc1)c1cc(Cl)ccc1NC(=S)Nc1ccc(F)cc1: F
- O=C(Nc1ccc(C(F)(F)F)cc1)N1CCN(c2ccnc3cc(Cl)ccc23)CC1: F
- COc1ccc(C(=O)CSC2=NCCc3ccccc32)cc1: F
- Cc1cccc(Cl)c1/C=N\NC(N)=S: F
- O=[N+]([O-])/C=C/c1ccc(F)cc1: T
- FC(F)(F)c1cccc(NC(=S)Nc2csc(C(F)(F)F)c2-c2ccccc2)c1: F
- O=C(Nc1ccc(N2CCOCC2)cc1)c1ccc(-n2cccn2)cc1: F
- NC(=Nc1ccc(F)cc1)SCc1c(Cl)cccc1Cl: F
- CC(C)c1ccc(N2C=Nc3ccc(C(C)C)cc3C2)cc1: F
- Cc1ccc(S(=O)(=O)CCSC2=CC(=O)CC(C)(C)S2)cc1: F
- COC(=O)C1=C(C)NC(C)=C(C(=O)OC)C1c1ccc(Cl)cc1Cl: F
- Cc1nn(Cc2ccc(C(=O)Sc3ccc(C(F)(F)F)cn3)o2)c(C)c1Br: F
- O=C(c1ccc2ccccc2c1)N1CCN(c2ccnc3cc(Cl)ccc23)CC1: F
- Fc1cccc(F)c1NC(=S)Nc1cc(C(F)(F)F)cc(C(F)(F)F)c1: F
- N#CCC(=O)NNC(=S)Nc1ccc(Cl)c(Cl)c1: F
- FC(F)(F)c1cccc(NC(=S)Nc2ccccc2)c1: F
- O=C(NCCSCc1cccc(C(F)(F)F)c1)Nc1cccc(C(F)(F)F)c1: F
- O=[N+]([O-])/C=C/c1ccsc1: T
- CSc1ccc(/C=C(\C)[N+](=O)[O-])cc1: T
- O=C(NC(=O)c1c(F)cccc1Cl)OCc1ccc(Cl)cc1Cl: F
- Cc1c2c(=O)[nH]ncc2c(-c2ccccc2)n1-c1ccc([N+](=O)[O-])cc1: F
- CCOC(=O)C1=C(N)OC2=C(C(=O)CC(C)(C)C2)C1c1ccc(Cl)cc1Cl (configuration not stated): F
- O=C(NCc1ccncc1)c1ccc(-n2cccn2)cc1: F
- CC(C)c1ccc(NCC(O)CSc2ccccc2)cc1 (configuration not stated): F
- CC(=O)Nc1ccc(/C=C/[N+](=O)[O-])cc1: F
